// data source = the supplement of paper PMC10567573

Kindly state protein stability index for each of the entries shown.
B1: TRIM15 (parent)
chain: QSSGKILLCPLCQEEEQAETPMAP

variants of: B1; assay: protein stability index of a GFP-peptide fusion (GPS, HEK-293T) (PSI 1-6); higher = more stable; details: c terminus: a fixed tail appended;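 also: lentivirally expressed fusions sorted by FACS into six bins by GFP to DsRed ratio, PSI derived from sequencing read proportions per bin multiplied by bin number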
One number for each entry.

Check out these entries, answers already filled in.
(Q) Give its protein stability index value. Item: L11F
(A) 3.42

(Q) Give its protein stability index value. Item: A18D
(A) 3.76

(Q) Give its protein stability index value. Item: P10M
(A) 2.75

(Q) Give its protein stability index value. Item: M22V
(A) 2.28

(Q) Give its protein stability index value. Item: E14C
(A) 2.55

(Q) Give its protein stability index value. Item: I6F
(A) 3.76

(Q) Give its protein stability index value. Item: P10S
(A) 3.56

(Q) Give its protein stability index value. Item: C12S
(A) 5.23

Count: 5. Required value per item: protein stability index.
1. C12T
2. I6Q
3. C12P
4. E14Y
5. L7C

(A)
1: 5.43; 2: 3.37; 3: 5.04; 4: 2.5; 5: 3.77
